experiment: qHTS assay to identify small molecule agonists of the endoplasmic reticulum stress response signaling pathway - cell viability counter screen (AID 1159517); settings: ESRE-bla HeLa viability, CellTiter-Glo luminescence, 5 h; series mostly up to 61 µM;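 note: HeLa cells carrying an ER stress response element beta-lactamase reporter; % is set by controls: 0 for no effect and ±100 for the full control effect; nearly all actives have a fitted effect of over 50% in size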
Inconclusive results are not listed. Activity calls are given as the source filed them. Calls come from the whole dose curve.
Measure: activity change, negative = cytotoxicity

Record excerpt, results attached:
q: Request the reported activity change, negative = cytotoxicity associated with CC(=O)C(C)O (stereo not given)
a: inactive

q: Request the reported activity change, negative = cytotoxicity associated with O=S(=O)(O)c1ccc2c(N=Nc3ccc(S(=O)(=O)O)c4ccccc34)c(O)c(S(=O)(=O)O)cc2c1
a: 0.511% [at 6.95 µM] (inactive)

q: Request the reported activity change, negative = cytotoxicity associated with CC(C)NCC(O)c1ccc2ccccc2c1 (stereo not given)
a: inactive

q: Request the reported activity change, negative = cytotoxicity associated with CCCCCCCCCCCCCBr
a: inactive

New cases:
q: Request the reported activity change, negative = cytotoxicity associated with Cc1c(N)cccc1Cl
a: inactive

q: Request the reported activity change, negative = cytotoxicity associated with CCCCSCCCC
a: inactive

q: Request the reported activity change, negative = cytotoxicity associated with CCc1occc(=O)c1O
a: inactive

q: Request the reported activity change, negative = cytotoxicity associated with OCC1(CO)COCOC1
a: inactive

q: Request the reported activity change, negative = cytotoxicity associated with CN(C)CCCO[C@@H]1[C@H]2OC(C)(C)O[C@H]2O[C@@H]1C(O)CO (stereo not given in full)
a: inactive

* * *

assay: qHTS assay to identify small molecule antagonists of the vitamin D receptor (VDR) signaling pathway - cell viability counter screen (AID 743225); conditions: VDR-bla HEK293T viability, CellTiter-Glo luminescence, 16 h; series mostly up to 61 µM; note: % is set by controls: 0 for no effect and ±100 for the full control effect; nearly all actives have a fitted effect of over 50% in size
Inconclusive results are not listed. Calls of active or inactive are those of the source. Calls come from the whole dose curve; as a rule, active = well fitted cell-killing curve with a large enough effect in the repeat runs; inconclusive = weak or mixed curves, or effect the other way; inactive = no such curve, though single readings can be large or run the other way.
Measure: viability change, negative = cytotoxic

Record excerpt, results attached:
q: Request the reported viability change, negative = cytotoxic associated with Cc1cccc(Cl)c1
a: inactive

q: Request the reported viability change, negative = cytotoxic associated with CCNC(=O)NCc1cccc(Cl)c1
a: inactive

q: Request the reported viability change, negative = cytotoxic associated with N#Cc1cscn1
a: inactive

q: Request the reported viability change, negative = cytotoxic associated with COc1ccc2c(c1)c1c3n2CCN(C)C3=NCC1
a: inactive

q: Request the reported viability change, negative = cytotoxic associated with CCC(C)OC(C)CC (stereo not drawn)
a: inactive

New cases:
q: Request the reported viability change, negative = cytotoxic associated with CO[C@@]1(NC(=O)Cc2cccs2)C(=O)N2C(C(=O)O)=C(COC(N)=O)CS[C@@H]21
a: inactive

q: Request the reported viability change, negative = cytotoxic associated with COc1cc(OC)nc(O[C@H](C(=O)O)C(OC)(c2ccccc2)c2ccccc2)n1
a: inactive

q: Request the reported viability change, negative = cytotoxic associated with CN(C)CCCCl
a: inactive

* * *

biological target: Nuclear receptor subfamily 1 group I member 2 (Homo sapiens) (UniProt O75469); test: Human pregnane X receptor (PXR) small molecule agonists, qHTS assay (AID 1346982); conditions: PXR-Luc HepG2, CYP3A4 luciferase reporter, 24 h; series mostly up to 92.4 µM; note: nearly all actives have a fitted effect of over 35% in size; note: potency is the fitted concentration of half-maximal effect; for activation: % is set by controls: 0 for no effect and ±100 for the full control effect
Sequence (O75469 whole entry, looked up): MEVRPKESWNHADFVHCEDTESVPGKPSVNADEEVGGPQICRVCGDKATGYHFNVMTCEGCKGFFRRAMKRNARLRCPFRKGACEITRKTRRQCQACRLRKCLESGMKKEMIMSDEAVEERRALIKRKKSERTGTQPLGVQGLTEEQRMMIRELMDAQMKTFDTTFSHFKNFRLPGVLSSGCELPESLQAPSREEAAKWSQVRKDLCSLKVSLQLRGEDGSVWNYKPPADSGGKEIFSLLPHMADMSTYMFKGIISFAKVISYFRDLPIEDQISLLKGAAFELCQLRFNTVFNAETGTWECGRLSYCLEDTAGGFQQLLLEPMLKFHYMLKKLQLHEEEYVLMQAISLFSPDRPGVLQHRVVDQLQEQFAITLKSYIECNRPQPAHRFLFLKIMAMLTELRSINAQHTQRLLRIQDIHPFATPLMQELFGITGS
Inconclusive results are not listed. The source made the active and inactive calls. Calls follow the shape of the dose curve; as a rule, active = well fitted activation curve with a large enough effect in the repeat runs; inconclusive = weak or mixed curves; inactive = no such curve, though single readings can be large or run the other way.
Measure: Potency

q: Request the reported Potency associated with c1ccc(B(c2ccccc2)c2ccccc2)cc1
a: 30.6 µM (active)

q: Request the reported Potency associated with CCOC(CN1CCN(CC(C)C(=O)c2ccccc2)CC1)c1ccccc1 (centres undefined)
a: 14.6 µM (active)

q: Request the reported Potency associated with O=NN(CCCl)C(=O)NC1CCCCC1
a: inactive

q: Request the reported Potency associated with C=CC/C=C/C
a: inactive

q: Request the reported Potency associated with CCCC(=O)OC/C=C(\C)CCC=C(C)C
a: inactive

q: Request the reported Potency associated with Cn1nnc2c(C(N)=O)ncn2c1=O
a: inactive

New cases:
q: Request the reported Potency associated with COc1cc2c(cc1OC)CN(C(=O)[C@H](C)N[C@@H](CCc1ccccc1)C(=O)O)[C@H](C(=O)O)C2
a: inactive

q: Request the reported Potency associated with C/C=C(\C)C(C)=O
a: inactive

q: Request the reported Potency associated with CN(C)CC/C=C1/c2ccccc2COc2ccc(CC(=O)O)cc21
a: inactive

q: Request the reported Potency associated with O/N=C/C=N/O
a: inactive

q: Request the reported Potency associated with CC(C)C1OCCN1CCOC(=O)NCCCCCCNC(=O)OCCN1CCOC1C(C)C (centres undefined)
a: 34.4 µM (active)

q: Request the reported Potency associated with C/C=C(\C)C(=O)OCCc1ccccc1
a: inactive

q: Request the reported Potency associated with COC(=O)c1cccc(Cl)c1
a: inactive

q: Request the reported Potency associated with NCCOCCN
a: inactive

These measurements were taken from PubChem BioAssay (Tox21).
